TARGET_ENTITY: T1, DFNB31_3, Q9P202
T1 sequence (Q9P202 811-907, limits assumed, looked up): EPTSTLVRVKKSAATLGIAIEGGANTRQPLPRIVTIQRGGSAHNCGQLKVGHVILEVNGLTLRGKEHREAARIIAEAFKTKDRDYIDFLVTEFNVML
ASSAY_EXPLANATION: holdup assay
Set-up: key: below the threshold = too weak to quantify, mostly under pKd 3.1 to 4
CONDITION_CONTEXT: plain residues with an end cap or a label only (N-terminal biotin on a linker: ado-ado)
A collection of binders and their measured pKd
API note: the answer field is a bare number with no unit suffix.

STYCDYTIEI [FAM71C, Q8NEG0] ... 3.86
RGKNRRQSIF [CDK18, Q07002] ... 3.65
QLGSPTADLA [SIPA1, Q96FS4] ... 3.55
DFKHTKSFII [JAM2, P57087] ... 3.71
DSEEELPTRL [GRK6, P43250] ... 3.53
SAGADSETHC [SLCO1B1, Q9Y6L6] ... 3.55
YAEKRMLTEV [KCNA6, P17658] ... 4.15
LVEEEEPMNL [HDAC7, Q8WUI4] ... 3.94

Given IGHEDLETAV [DGKI, O75912] , state its recorded pKd. 3.92
